This collection of values is drawn from PubChem BioAssay (Tox21).

test: qHTS assay to identify small molecule agonists of the estrogen receptor beta (ER-beta) signaling pathway - cell viability counter screen (AID 1259380); conditions: ER-beta-bla HEK293T viability, CellTiter-Glo luminescence, 16 h; series mostly up to 92.4 µM; further: on the % scale 0 is the no-effect control and ±100 the full control effect; nearly all actives have a fitted effect of over 30% in size
Records with an inconclusive call do not appear. Active and inactive are the calls of the source. The call rests on the fitted dose curve; in most records, active means well fitted cell-killing curve with a large enough effect in the repeat runs; inconclusive means weak or mixed curves, or effect the other way; inactive means flat fitted curve, though single readings scatter.
Thanks in advance; please answer with one of these: 1 (yes) = active, 0 (no) = inactive

Input: Dear colleague, could you share the recorded outcome for CCCCCCCCCC(=O)N(C)C when you have a moment?
Output: 0 (no)

----------
Experiment: qHTS assay to identify small molecule agonists of the farnesoid-X-receptor (FXR) signaling pathway - cell viability counter screen (AID 743218); further: nearly all actives have a fitted effect of over 45% in size
Settings: FXR-bla HEK293T viability, CellTiter-Glo luminescence, 16 h; series mostly up to 62.6 µM
From the text: U.S. Tox21 Program National Center for Advancing Translational Sciences [NCATS] NIH Chemical Genomics Center [NCGC] U.S. Environmental Protection Agency [EPA] National Institutes of Environmental Health Sciences [NIEHS] National Toxicology Program [NTP] U.S. Food and Drug Administration [FDA] Tox21 Assay Overview: The farnesoid-X-receptor (FXR), a nuclear hormone receptor, is highly expressed in liver, intestine, kidney and adrenal cortex. […]
Inconclusive results are not listed. Active and inactive are the calls of the source. Calls follow the shape of the dose curve; as a rule, active = well fitted cell-killing curve with a large enough effect in the repeat runs; inconclusive = weak or mixed curves, or effect the other way; inactive = no such curve, though single readings can be large or run the other way.
Thanks in advance; please answer with one of these: true (1) for active, false (0) for inactive

Past entries and their recorded results:
Molecule: CC(=O)Nc1ccc(O)cc1
Class: false (0)

Molecule: CCNc1nc(NC(C)CC)nc(OC)n1 (configuration not stated)
Class: false (0)

Molecule: C=CC(C)(CCC=C(C)C)OC(=O)/C=C/c1ccccc1 (configuration not stated)
Class: false (0)

Molecule: O=C1C=CC(=O)N1c1ccccc1
Class: true (1)

Input: Dear colleague, could you share the recorded outcome for CC(C)(C)c1cc(/C=C2\SC(=N)NC2=O)cc(C(C)(C)C)c1O when you have a moment?
Output: true (1)

Input: Dear colleague, could you share the recorded outcome for C[C@@]12C(=O)OC(=O)[C@]1(C)C1CCC2O1 when you have a moment?
Output: true (1)

Input: Dear colleague, could you share the recorded outcome for c1ccc(Nc2cccc3ccccc23)cc1 when you have a moment?
Output: false (0)

----------
assay: qHTS RealTime-Glo MT Cell Viability Assay in HEK293 cells - 24 hour (AID 1224886); details: RealTime-Glo luminescence; series mostly up to 76.8 µM; further: nearly all actives have a fitted effect of over 50% in size
Inconclusive results are not listed. Activity calls are given as the source filed them. Calls come from the whole dose curve; as a rule, active = well fitted cell-killing curve with a large enough effect in the repeat runs; inconclusive = weak or mixed curves, or effect the other way; inactive = flat fitted curve, though single readings scatter.
Thanks in advance; please answer with one of these: active, inactive

Mol Smiles: CCCCCCCCCCCCN(CCO)CCO
Class: active
--
Mol Smiles: CCc1ccc(O)c(C(C)(C)C)c1
Class: inactive
--
Mol Smiles: C=C(C)C(=O)OCCC[Si](Cl)(Cl)Cl
Class: inactive
--
Mol Smiles: CN(C)CCCN1c2ccccc2CCc2ccccc21
Class: inactive
--
Mol Smiles: CCOCOCC
Class: inactive

Input: Dear colleague, could you share the recorded outcome for Cc1cnccn1 when you have a moment?
Output: inactive

Input: Dear colleague, could you share the recorded outcome for COC(=O)NCCC[Si](OC)(OC)OC when you have a moment?
Output: inactive

Input: Dear colleague, could you share the recorded outcome for NC(=O)C(=O)N/N=C/c1ccc([N+](=O)[O-])o1 when you have a moment?
Output: inactive

----------
target: Nuclear receptor subfamily 1 group I member 3 (Homo sapiens) (UniProt Q14994); assay: qHTS assay to identify small molecule agonists of the constitutive androstane receptor (CAR) signaling pathway (AID 1224839); details: HepG2 hCAR CYP2B6-luciferase, agonist mode, 24 h; series mostly up to 92.4 µM; further: nearly all actives have a fitted effect of over 15% in size;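 on activation: HepG2 cells stably carrying human CAR and a CYP2B6 luciferase reporter; on the % scale 0 is the no-effect control and ±100 the full control effect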
Sequence (Q14994 whole entry, looked up): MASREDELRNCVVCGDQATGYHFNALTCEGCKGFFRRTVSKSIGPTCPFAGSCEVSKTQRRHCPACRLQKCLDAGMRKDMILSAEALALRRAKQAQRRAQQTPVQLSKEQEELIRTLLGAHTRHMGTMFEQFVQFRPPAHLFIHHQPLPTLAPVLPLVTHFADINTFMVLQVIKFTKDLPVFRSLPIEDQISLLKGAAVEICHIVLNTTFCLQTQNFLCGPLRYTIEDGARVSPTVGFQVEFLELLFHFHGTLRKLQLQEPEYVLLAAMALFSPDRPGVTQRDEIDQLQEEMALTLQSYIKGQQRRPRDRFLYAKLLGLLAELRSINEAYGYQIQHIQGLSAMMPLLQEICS
Records with an inconclusive call do not appear. Calls of active or inactive are those of the source. Calls follow the shape of the dose curve; as a rule, active = well fitted activation curve with a large enough effect in the repeat runs; inconclusive = weak or mixed curves; inactive = no such curve, though single readings can be large or run the other way.
Thanks in advance; please answer with one of these: class 1 (active), class 0 (inactive)

Past entries and their recorded results:
Compound: O=CC1CC1
Class: class 0

Compound: CCO[Si](CCCSSSSCCC[Si](OCC)(OCC)OCC)(OCC)OCC
Class: class 0

Compound: CCCCCCS
Class: class 0

Compound: O=C(Oc1ccccc1)c1cccc(C(=O)Oc2ccccc2)c1
Class: class 1

Compound: O=C1C=CC(=O)N1c1ccccc1
Class: class 0

Input: Dear colleague, could you share the recorded outcome for CC(C)(c1cc(Br)c(O)c(Br)c1)c1cc(Br)c(O)c(Br)c1 when you have a moment?
Output: class 0

Input: Dear colleague, could you share the recorded outcome for CC(C(O)c1ccccc1)N(C)CCOC(c1ccccc1)c1ccccc1 (configuration not stated) when you have a moment?
Output: class 0

----------
experiment: qHTS assay to identify small molecule antagonists of the retinoid acid receptor (RAR) signaling pathway - cell viability counter screen (AID 1159551); settings: C3RL4 cells viability, ATP luminescence (CellTiter-Glo), 6 h; series mostly up to 92.4 µM; further: on the % scale 0 is the no-effect control and ±100 the full control effect; nearly all actives have a fitted effect of over 35% in size
Records with an inconclusive call do not appear. Activity calls are given as the source filed them. Calls come from the whole dose curve; as a rule, active = well fitted cell-killing curve with a large enough effect in the repeat runs; inconclusive = weak or mixed curves, or effect the other way; inactive = flat fitted curve, though single readings scatter.
Observation Type: activity change, negative = cytotoxicity

Mol Smiles: CCCCCCCCCCCCCCCCCO
activity change, negative = cytotoxicity: 0.141% [at 19 µM] (inactive)
--
Mol Smiles: N[C@@H](CSSC[C@H](N)C(=O)O)C(=O)O
activity change, negative = cytotoxicity: -1.26% [at 0.349 µM] (inactive)
--
Mol Smiles: O=C=NCc1cccc(CN=C=O)c1
activity change, negative = cytotoxicity: 2.07% [at 19 µM] (inactive)

Input: Given CCN1CCN(c2cc(-c3ccc(F)cc3)c3c(n2)CCCCCC3)CC1 , respond with its activity change, negative = cytotoxicity.
Output: 0.574% [at 19 µM] (inactive)

Input: Given O=S(O)O , respond with its activity change, negative = cytotoxicity.
Output: -0.573% [at 19 µM] (inactive)

Input: Given C=CC(=C)CC/C=C(\C)CCC=C(C)C , respond with its activity change, negative = cytotoxicity.
Output: -0.128% [at 19 µM] (inactive)

Input: Given COc1cc(C(C)C)c2c(c1)S(=O)(=O)N(COc1cc(=O)n3cccc(OCCN4CCCCC4)c3n1)C2=O , respond with its activity change, negative = cytotoxicity.
Output: 5.72% [at 19 µM] (inactive)

----------
Target: Voltage-gated inwardly rectifying potassium channel KCNH2 (Homo sapiens) (UniProt Q12809)
Sequence (Q12809 whole entry, looked up): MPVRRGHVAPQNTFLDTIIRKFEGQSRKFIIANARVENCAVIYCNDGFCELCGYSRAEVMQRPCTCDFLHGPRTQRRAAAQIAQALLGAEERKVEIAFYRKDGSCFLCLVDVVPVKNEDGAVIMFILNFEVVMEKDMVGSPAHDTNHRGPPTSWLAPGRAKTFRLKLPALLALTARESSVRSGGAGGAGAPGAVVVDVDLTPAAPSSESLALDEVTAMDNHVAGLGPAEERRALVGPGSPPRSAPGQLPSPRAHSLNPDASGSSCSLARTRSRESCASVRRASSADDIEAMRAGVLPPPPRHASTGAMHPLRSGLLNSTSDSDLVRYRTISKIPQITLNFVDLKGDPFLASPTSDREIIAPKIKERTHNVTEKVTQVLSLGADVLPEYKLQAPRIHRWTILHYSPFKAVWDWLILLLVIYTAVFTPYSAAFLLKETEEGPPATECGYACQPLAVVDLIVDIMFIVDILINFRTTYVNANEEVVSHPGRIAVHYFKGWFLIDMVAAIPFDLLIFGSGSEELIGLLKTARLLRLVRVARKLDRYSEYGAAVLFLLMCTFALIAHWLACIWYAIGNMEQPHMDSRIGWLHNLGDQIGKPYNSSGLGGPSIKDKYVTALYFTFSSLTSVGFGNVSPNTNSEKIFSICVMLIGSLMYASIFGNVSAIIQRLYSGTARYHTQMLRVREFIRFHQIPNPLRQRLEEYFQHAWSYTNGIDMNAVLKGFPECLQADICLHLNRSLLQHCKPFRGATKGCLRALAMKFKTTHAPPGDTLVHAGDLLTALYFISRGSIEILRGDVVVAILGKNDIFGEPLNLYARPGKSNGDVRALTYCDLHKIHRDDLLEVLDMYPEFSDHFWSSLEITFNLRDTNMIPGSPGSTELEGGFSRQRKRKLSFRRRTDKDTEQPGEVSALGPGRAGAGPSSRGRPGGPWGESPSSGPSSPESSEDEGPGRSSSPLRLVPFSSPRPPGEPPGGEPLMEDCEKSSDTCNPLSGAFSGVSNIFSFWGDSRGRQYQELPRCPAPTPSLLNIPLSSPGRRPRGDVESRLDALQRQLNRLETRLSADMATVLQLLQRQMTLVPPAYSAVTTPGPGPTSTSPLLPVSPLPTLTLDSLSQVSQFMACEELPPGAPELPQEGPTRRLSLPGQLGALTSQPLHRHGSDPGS
Experiment: Human Ether-a-go-go-Related Gene (hERG) channel small molecule antagonists: fluorescence cell-based qHTS assay (AID 1671200); further: nearly all actives have a fitted effect of over 50% in size; further: potency means the concentration at half of the fitted maximal effect
Settings: hERG-U2OS cells, FluxOR thallium flux fluorescence; series mostly up to 76.8 µM
Description: National Center for Advancing Translational Sciences [NCATS] U.S. Environmental Protection Agency [EPA] National Institutes of Environmental Health Sciences [NIEHS] National Toxicology Program [NTP] U.S. Food and Drug Administration [FDA] Mutations in the hERG channel cause Long QT (LQT) syndrome. LQT syndrome is a cardiac disorder which can cause ventricle arrhythmia and sudden death. Additionally, compounds which block the hERG channel can cause acquired LQT syndrome. […]
Inconclusive results are not listed. Activity calls are given as the source filed them. The call rests on the fitted dose curve; in most records, active means well fitted inhibition curve with a large enough effect in the repeat runs; inconclusive means weak or mixed curves; inactive means flat fitted curve, though single readings scatter.
Observation Type: Potency

Compound: COc1cc(C(=O)NS(=O)(=O)c2ccccc2C)ccc1Cc1cn(C)c2ccc(NC(=O)OC3CCCC3)cc12
Target System: Voltage-gated inwardly rectifying potassium channel KCNH2 (Homo sapiens) (UniProt Q12809)
Potency: inactive
//
Compound: OCCCCl
Target System: Voltage-gated inwardly rectifying potassium channel KCNH2 (Homo sapiens) (UniProt Q12809)
Potency: inactive
//
Compound: O=Nc1ccc(NO)cc1
Target System: Voltage-gated inwardly rectifying potassium channel KCNH2 (Homo sapiens) (UniProt Q12809)
Potency: inactive
//
Compound: CC(O)C#CC(C)O (stereo unspecified)
Target System: Voltage-gated inwardly rectifying potassium channel KCNH2 (Homo sapiens) (UniProt Q12809)
Potency: inactive
//
Compound: CCOC(/C=C(\C)CCC=C(C)C)OCC
Target System: Voltage-gated inwardly rectifying potassium channel KCNH2 (Homo sapiens) (UniProt Q12809)
Potency: inactive
//
Compound: CC(C)=CC1CC(C)CCO1 (stereo unspecified)
Target System: Voltage-gated inwardly rectifying potassium channel KCNH2 (Homo sapiens) (UniProt Q12809)
Potency: inactive
//
Compound: CNC(=S)NN
Target System: Voltage-gated inwardly rectifying potassium channel KCNH2 (Homo sapiens) (UniProt Q12809)
Potency: inactive
//
Compound: COc1cccc(O)c1
Target System: Voltage-gated inwardly rectifying potassium channel KCNH2 (Homo sapiens) (UniProt Q12809)
Potency: inactive

Input: Given CN1CCN(C2Cc3ccccc3Sc3ccc(Cl)cc32)CC1 (stereo unspecified) , respond with its Potency.
Output: 0.848 µM (active)

Input: Given OCCCc1cccnc1 , respond with its Potency.
Output: inactive

Input: Given Clc1cccnc1 , respond with its Potency.
Output: inactive

Input: Given COc1ccc(C#N)cc1 , respond with its Potency.
Output: inactive

Input: Given Clc1ccc(C(Cn2ccnc2)OCc2ccsc2Cl)c(Cl)c1 (stereo unspecified) , respond with its Potency.
Output: 9.52 µM (active)

Input: Given C=CC(=O)OCC(O)COc1ccccc1 (stereo unspecified) , respond with its Potency.
Output: inactive

Input: Given O=C[C@H](O)[C@H](O)[C@H](O)CO , respond with its Potency.
Output: inactive
